# Assay System: Bromodomain adjacent to zinc finger domain protein 2B (Homo sapiens) (UniProt Q9UIF8)
# Sequence (Q9UIF8 whole entry, looked up, the tested form may be a part): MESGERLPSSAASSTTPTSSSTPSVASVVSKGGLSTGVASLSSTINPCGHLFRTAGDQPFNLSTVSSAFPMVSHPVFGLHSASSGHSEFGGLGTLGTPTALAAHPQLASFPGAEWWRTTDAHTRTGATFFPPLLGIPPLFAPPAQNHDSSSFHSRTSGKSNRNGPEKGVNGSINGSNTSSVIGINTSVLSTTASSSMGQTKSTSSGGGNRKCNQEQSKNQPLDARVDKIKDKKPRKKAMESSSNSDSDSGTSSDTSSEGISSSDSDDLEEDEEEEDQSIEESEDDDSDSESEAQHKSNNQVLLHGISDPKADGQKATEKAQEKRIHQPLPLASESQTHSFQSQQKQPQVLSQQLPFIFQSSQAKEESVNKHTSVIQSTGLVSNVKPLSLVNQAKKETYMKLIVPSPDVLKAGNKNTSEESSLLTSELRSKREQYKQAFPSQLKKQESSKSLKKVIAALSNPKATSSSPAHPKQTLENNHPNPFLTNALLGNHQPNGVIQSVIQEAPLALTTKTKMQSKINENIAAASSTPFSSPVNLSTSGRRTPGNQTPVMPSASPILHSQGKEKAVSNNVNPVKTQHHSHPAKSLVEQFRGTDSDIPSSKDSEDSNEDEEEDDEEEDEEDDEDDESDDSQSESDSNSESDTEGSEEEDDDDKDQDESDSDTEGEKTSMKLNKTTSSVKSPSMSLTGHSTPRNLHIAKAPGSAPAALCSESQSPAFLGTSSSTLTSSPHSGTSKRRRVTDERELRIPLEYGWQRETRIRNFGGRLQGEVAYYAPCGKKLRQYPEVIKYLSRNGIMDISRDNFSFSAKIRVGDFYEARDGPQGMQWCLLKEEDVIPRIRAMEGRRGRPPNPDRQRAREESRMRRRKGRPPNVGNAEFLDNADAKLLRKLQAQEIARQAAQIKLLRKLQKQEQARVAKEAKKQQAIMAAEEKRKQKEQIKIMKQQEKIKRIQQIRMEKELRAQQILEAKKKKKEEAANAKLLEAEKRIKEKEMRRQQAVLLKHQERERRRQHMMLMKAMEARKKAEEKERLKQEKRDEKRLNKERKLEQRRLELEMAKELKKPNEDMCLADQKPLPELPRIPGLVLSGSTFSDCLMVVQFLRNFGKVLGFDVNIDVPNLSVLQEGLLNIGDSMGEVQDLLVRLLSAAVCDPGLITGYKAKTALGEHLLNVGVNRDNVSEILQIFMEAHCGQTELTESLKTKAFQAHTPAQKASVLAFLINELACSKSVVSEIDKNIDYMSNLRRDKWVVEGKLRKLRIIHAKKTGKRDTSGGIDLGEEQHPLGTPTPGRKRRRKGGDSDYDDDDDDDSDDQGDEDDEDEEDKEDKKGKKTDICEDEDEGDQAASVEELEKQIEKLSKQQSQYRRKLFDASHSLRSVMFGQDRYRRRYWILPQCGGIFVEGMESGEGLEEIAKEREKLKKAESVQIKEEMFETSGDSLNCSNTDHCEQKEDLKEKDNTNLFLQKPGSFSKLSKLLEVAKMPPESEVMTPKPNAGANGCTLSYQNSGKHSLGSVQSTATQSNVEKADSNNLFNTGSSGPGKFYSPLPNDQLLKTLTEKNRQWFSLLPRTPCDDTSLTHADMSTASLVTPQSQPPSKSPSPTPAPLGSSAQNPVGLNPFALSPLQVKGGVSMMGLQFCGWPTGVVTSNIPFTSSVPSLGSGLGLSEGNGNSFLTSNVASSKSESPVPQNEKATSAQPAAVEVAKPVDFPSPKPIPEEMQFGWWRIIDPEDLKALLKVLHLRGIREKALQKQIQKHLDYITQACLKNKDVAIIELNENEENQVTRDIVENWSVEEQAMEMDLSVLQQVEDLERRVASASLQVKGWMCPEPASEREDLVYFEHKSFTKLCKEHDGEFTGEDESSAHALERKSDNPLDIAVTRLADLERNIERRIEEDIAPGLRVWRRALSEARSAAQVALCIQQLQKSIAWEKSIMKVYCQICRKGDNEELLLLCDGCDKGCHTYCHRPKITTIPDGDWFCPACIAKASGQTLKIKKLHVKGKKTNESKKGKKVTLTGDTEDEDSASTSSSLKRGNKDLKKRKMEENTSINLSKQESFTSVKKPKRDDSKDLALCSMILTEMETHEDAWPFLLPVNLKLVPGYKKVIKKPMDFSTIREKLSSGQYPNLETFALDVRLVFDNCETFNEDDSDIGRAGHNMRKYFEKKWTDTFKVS
# Protocol Summary: qHTS Assay for Inhibitors of BAZ2B; note: nearly all actives have a fitted effect of over 60% in size
# Condition Parameters: AlphaScreen BAZ2B-H3K14Ac peptide displacement; series mostly up to 114 µM
The whole screen tested about 360,000 compounds, of which about 16,000 (4.4%) were called active. Not shown: some 9% with an inconclusive outcome. Calls come from the whole dose curve; as a rule, active = well fitted inhibition curve with a large enough effect; inconclusive = small, poorly fitted or top-dose-only effect; inactive = no such curve, though single readings can be large or run the other way. This excerpt belongs to a sample that is enriched for actives.
Classes used: active, inactive

Molecular String | Class Label
CC(C)c1ccc(Nc2ncccc2C#N)cc1 | inactive
Oc1ccccc1N1CCN(C(=S)NCc2ccccc2)CC1 | inactive
CCN(CC)c1ccc(NC(=O)CN2C(=O)c3cccnc3Oc3ccc(Cl)cc32)c(C)c1 | inactive
CCOC(=O)c1c(NC(=O)COc2cc(C)ccc2C(C)C)sc(C)c1C | inactive
CN(CC(=O)Nc1cccc(C(F)(F)F)c1)S(=O)(=O)c1cccs1 | inactive
COc1ccc(-n2c(=O)c3sc4ccccc4c3n(CC(=O)Nc3cccc(C)c3)c2=O)cc1 | inactive
Oc1ccc(CNc2ccccc2O)cc1 | active
CCCCn1cc(S(=O)(=O)c2ccc(OCC)cc2)c(=O)c2cc(OC)c(OC)cc21 | inactive
O=C(Nc1ncccc1O)c1ccc(C(=O)c2ccccc2)cc1 | inactive
Nc1ccc(Nc2cc(O)c3ncccc3c2)cc1 | active
CC(=O)c1c(C)n(S(=O)(=O)c2ccc(Cl)cc2)c2ccc(NS(=O)(=O)c3ccc(Cl)cc3)cc12 | inactive
